Hey, just so you know, these numbers are from patent US20250145608A1.

molecular target: KRAS(G12D) (Homo sapiens, UniProt P01116, G12D); construct: introduced immediately downstream of the initiating Methionine codon of the endogenous KRAS locus; host or cells: GP5d-HiBit-KRAS(G12D), a CRISPR knock-in at the endogenous locus; assay: HiBit degradation assay in GP5d-HiBit-KRAS(G12D) cells (18 h; DC50, Dmax); type: cell-based
Sequence (P01116 1-188 isoform P01116-2 G12D): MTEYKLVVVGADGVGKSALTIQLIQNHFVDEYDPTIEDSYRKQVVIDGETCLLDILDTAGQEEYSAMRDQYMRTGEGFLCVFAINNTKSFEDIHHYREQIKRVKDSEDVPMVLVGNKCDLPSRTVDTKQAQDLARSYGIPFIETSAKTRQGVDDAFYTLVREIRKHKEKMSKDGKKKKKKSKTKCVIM
For each of the molecules below, state its log10 of DC50.
The figures below represent log10 of DC50, where DC50 is stated in nM.

Field request: log10 of DC50 | item: Cc1ncsc1-c1ccc(CNC(=O)[C@@H]2C[C@@H](O)CN2C(=O)C(c2cc(OCCCCN3CCCN(c4nccc(-c5noc([C@@]6(C)CCCc7sc(N)c(C#N)c76)n5)n4)[C@@H](C)C3)no2)C(C)C)cc1 (stereo partly drawn)
0.43

Proceed to CC(C)C(C(=O)N1C[C@H](O)C[C@H]1C(=O)NCc1ccc(-n2ccnc2)cc1)c1cc(OCCCCN2CCCN(c3nccc(-c4noc([C@@]5(C)CCCc6sc(N)c(C#N)c65)n4)n3)[C@@H](C)C2)no1 (stereo partly drawn)
0.83

Proceed to Cc1ncsc1-c1ccc(CNC(=O)[C@@H]2C[C@@H](O)CN2C(=O)C(c2cc(OCCCCN3CCCN(c4nccc(-c5cc([C@@]6(C)CCCc7sc(N)c(C#N)c76)on5)n4)[C@@H](C)C3)no2)C(C)C)cc1 (stereo partly drawn)
0.63

Proceed to Cc1cc(CNC(=O)[C@@H]2C[C@@H](O)CN2C(=O)C(c2cc(OCCCCN3CCCN(c4nccc(-c5noc([C@@]6(C)CCCc7sc(N)c(C#N)c76)n5)n4)[C@@H](C)C3)no2)C(C)C)c(F)cc1-c1scnc1C (stereo partly drawn)
1.66

Proceed to Cc1ncsc1-c1ccc([C@H](C)NC(=O)[C@@H]2C[C@@H](O)CN2C(=O)C(C(C)C)n2cc(OCCCCN3CCCN(c4nccc(-c5noc([C@@]6(C)CCCc7sc(N)c(C#N)c76)n5)n4)[C@@H](C)C3)nn2)cc1 (stereo partly drawn)
0.18

Proceed to CC(C)C(C(=O)N1C[C@H](O)C[C@H]1C(=O)NCc1ccc(-n2cncn2)cc1)c1cc(OCCCCN2CCCN(c3nccc(-c4noc([C@@]5(C)CCCc6sc(N)c(C#N)c65)n4)n3)[C@@H](C)C2)no1 (stereo partly drawn)
0.52
